Target: Hepatocyte Growth Factor Activator (HGFA) serine protease domain, N-terminal His-tag, recombinant (Homo sapiens (Human)) (UniProt Q04756)
Experiment: fluorogenic inhibition assay
Non-standard residues stand in square brackets, D forms with d. No end group written: not given here. *: point of attachment. kbt = C-terminal ketobenzothiazole, c1ccc2sc(*)nc2c1; Kbt = ketobenzothiazole, c1ccc2sc(*)nc2c1; kt = C-terminal ketothiazole, c1csc(*)n1; Fmoc = O=C(OCC1c2ccccc2-c2ccccc21)*; cmk = not defined here
Ki vs 600 nM: less than gives Fulfilled; not less than gives Not fulfilled.

H-Trp-Leu-Arg-{kbt-OH} [H-WLR-kbt-COOH]    Not fulfilled

Qu. API: query returns whether the binder falls strictly under 600 nM in Ki. Query: Ac-WLFR-kbt (SMILES CC(=O)N[C@@H](Cc1c[nH]c2ccccc12)C(=O)N[C@@H](CC(C)C)C(=O)N[C@@H](Cc1ccccc1)C(=O)N[C@@H](CCCNC(=N)N)C(=O)c1nc2ccccc2s1) [Ac-WLFR(SEQ ID NO: 20)-Kbt]
Ans. Fulfilled

Qu. API: query returns whether the binder falls strictly under 600 nM in Ki. Query: Ac-SRLR-kt (SMILES CC(=O)N[C@@H](CO)C(=O)N[C@@H](CCCNC(=N)N)C(=O)N[C@@H](CC(C)C)C(=O)N[C@@H](CCCNC(=N)N)C(=O)c1nccs1) [Ac-SRLR(SEQ ID NO: 15)-kt]
Ans. Fulfilled

Qu. API: query returns whether the binder falls strictly under 600 nM in Ki. Query: H-[dW]-Phe-Arg-{kbt-OH} [H-dWFR-kbt-COOH]
Ans. Not fulfilled

Qu. API: query returns whether the binder falls strictly under 600 nM in Ki. Query: Ac-FLFR-Kbt (SMILES CC(=O)N[C@@H](Cc1ccccc1)C(=O)N[C@@H](CC(C)C)C(=O)N[C@@H](Cc1ccccc1)C(=O)N[C@@H](CCCNC(=N)N)C(=O)c1nc2ccccc2s1) [Ac-FLFR(SEQ ID NO: 19)-Kbt]
Ans. Fulfilled

Qu. API: query returns whether the binder falls strictly under 600 nM in Ki. Query: {Cy5.5}-KRLR-cmk (reading uncertain) [Cy5.5-KRLR(SEQ ID NO: 8)-cmk]
Ans. Fulfilled

Qu. API: query returns whether the binder falls strictly under 600 nM in Ki. Query: Ac-SKLR (not fully specified (C-terminus)) [Ac-SKLR(SEQ ID NO: 10)-Kbt-Trp-NH2]
Ans. Fulfilled

Qu. API: query returns whether the binder falls strictly under 600 nM in Ki. Query: Fmoc-Pro-Arg-kbt [Fmoc-PR-kbt]
Ans. Not fulfilled

Qu. API: query returns whether the binder falls strictly under 600 nM in Ki. Query: Fmoc-Phe-Arg-kbt [Fmoc-FR-kbt]
Ans. Not fulfilled

Qu. API: query returns whether the binder falls strictly under 600 nM in Ki. Query: Fmoc-Gly-Arg-kbt [Fmoc-GR-kbt]
Ans. Not fulfilled

Qu. API: query returns whether the binder falls strictly under 600 nM in Ki. Query: Ac-SQLR-kt (SMILES CC(=O)N[C@@H](CO)C(=O)N[C@@H](CCC(N)=O)C(=O)N[C@@H](CC(C)C)C(=O)N[C@@H](CCCNC(=N)N)C(=O)c1nccs1) [Ac-SQLR(SEQ ID NO: 7)-kt]
Ans. Fulfilled

These entries and their values trace back to patent US20180066015A1.
